Where these numbers come from: patent US10597388B2

- System: galium (catchweed bedstraw, Galium aparine)
- Assay Info: Test D controlled growth environment herbicide test, pre- and postemergence
- Type: in vivo
- Details: Preemergence, 125 g ai/ha; scale 0 to 100 (0 no effect, 100 complete control)
Observable: Plant response rating, Galium

Given COc1nn(C)c(=O)c(-c2c(C)ccc3ccccc23)c1OC(=O)OC(C)C , state its recorded Plant response rating, Galium.
75

Subsequent entry: Cc1ccc2ccccc2c1-c1c(O)c(C)nn(C)c1=O
100

// next record CC(=O)Oc1c(C)nn(C)c(=O)c1-c1c(C)sc2ccc(C)cc12
95

Follow-up item: CCOC(=O)Oc1c(C)nn(C)c(=O)c1-c1c(C)sc2ccc(C)cc12
80

Okay, and C#CCOC(=O)Oc1c(C)nn(C)c(=O)c1-c1c(C)sc2ccc(C)cc12 ?
60

Next record, please: CCC(=O)Oc1c(C)nn(C)c(=O)c1-c1c(C)sc2c(C)cc(C)cc12
85

Another: CC(=O)Oc1c(C)nn(C)c(=O)c1-c1c(C)cc(C)c2ccccc12
95

Next record, please: CCOC(=O)Oc1c(C)nn(C)c(=O)c1-c1c(C)ccc2ccccc12
80

Moving on to Cc1ccc2sc(C)c(-c3c(O)c(C)nn(C)c3=O)c2c1
100

Another: CCC(=O)Oc1c(C)nn(C)c(=O)c1-c1c(C)sc2ccc(C)cc12
95
